# TEST TARGET: T1, rat alpha CGRP (SEQ ID NO: 82) (rat)
# T1 construct: also called rat αCGRP; rat α-CGRP
# T1 peptide: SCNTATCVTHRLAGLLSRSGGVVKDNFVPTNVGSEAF
# EXPERIMENTAL PROTOCOL: SPR, 37 C, mutein captured, CGRP analyte
pKd: −log10 of the molar value.
Where pKd equals or exceeds 10, the correct label is YES; where it does not, the label is NO.

Use these answered entries as a reference point.
>>> category("lipocalin mutein SEQ ID NO: 13 (designed binder, biotinylated by NHS chemistry for capture in SPR) QDSTSDLIPAPPLSKVPLQQNFQDNQFHGKWYVVGRAGNEELREDKDPQKMEATIYELKEDKSYNVTDVGFSEKKCIYVIHTFVPGSQPGEFTLGNIKSYPGVTSALVRVVSTNYNQHAMVFFKVVKQNRELFEITLYGRTKELTSELKENFIRFSKSLGLPENHIVFPVPIDQCIDGSAWSHPQFEK")
"NO"
>>> category("lipocalin mutein SEQ ID NO: 7 (designed binder, biotinylated by NHS chemistry for capture in SPR) QDSTSDLIPAPPLSKVPLQQNFQDNQFHGKWYVVGWAGNTLLREDKDPIKMQATIYELKEDKSYNVTWVYFSEKRCNYHIETSVPGSQPGEFTLGTIKSYPGETSILVRVVSTNYNQHAMVFFKGVSQNREIFEITLYGRTKELTSELKENFIRFSKSLGLPENHIVFPVPIDQCIDGSAWSHPQFEK")
"NO"
>>> category("lipocalin mutein SEQ ID NO: 16 (designed binder, biotinylated by NHS chemistry for capture in SPR) QDSTSDLIPAPPLSKVPLQQNFQDNQFHGKWYVVGRAGNDELREDKDPEKMEATIYELKEDKSYNVTDVGFVQKKCMYVIHTFVPGSQPGEFTLGNIKSYPGVTSGLVRVVSTNYNQHAMVFFKVVRQNRELFEITLYGRTKELTSELKENFIRFSKSLGLPENHIVFPVPIDQCIDGSAWSHPQFEK")
"NO"
>>> category("lipocalin mutein SEQ ID NO: 22 (designed binder, biotinylated by NHS chemistry for capture in SPR) QDSTSDLIPAPPLSKVPLQQNFQDNQFHGKWYVVGRAGNDALREDKDPEKMEATIYELKEDKSYNVTDVGLVQKKCMYVIHTFVPGGQPGEFTLGNIKSYPGVTSALVRVVSTNYNQHAMVFVKLVKQNRELFEITLYGRTKELTSELKENFIRFSKSLGLPENHIVFPVPIDQCIDGSAWSHPQFEK")
"YES"
>>> category("lipocalin mutein SEQ ID NO: 9 (designed binder, biotinylated by NHS chemistry for capture in SPR) QDSTSDLIPAPPLSKVPLQQNFQDNQFHGKWYVVGWAGNTLLREDKDPIKMQATIYELKEDKSYDVTWVYLSEKKCNYHIETSVPGSQPGEFTLGTIKSYPGETSILVRVVSTNYNQHAMVFFKGMSQNREIFEITLYGRTKELASELKENFIRFSKSLGLPENHIVFPVPIDQCIDGSAWSHPQFEK")
"NO"

[Q] Is pKd for lipocalin mutein SEQ ID NO: 27 (designed binder, biotinylated by NHS chemistry for capture in SPR) QDSTSDLIPAPPLSKVPLQQNFQDNQFHGKWYVVGWAGNTLLREDKDPIKMQAMIYELKEDKSYNVTWVYFADKKCNYHIETFVPGSQPGEFTLGTIKSYPGETPILVRVVSTNYNQHAMVFFKGVNQNREIFEIVLYGRTKELTNELKENFIRFSKSLGLPENHIVFPVPIDQCIDGSAWSHPQFEK at or above 10?
[A] YES
